Target: HRgpA-6H (Porphyromonas gingivalis) (UniProt P28784)
Assay: ELISA on coated HRgpA-6H
The entries below are paired with their reported OD450nm.

# binder, OD450nm
records = [
    ("KB001 mouse Fab FASEBA VH S30L (Fab, V domains shown) VH: EVQLKQSGPGLVAPSQSLSITCTVSGFSLLIYSVHWVRQPPGKGLEWLGMIWGGGSSDYNSALKSRLSISKDNSKSQVFLKMNSLQTDDTAMYYCARNGNFYAMDYWGQGTSVTVSS VL: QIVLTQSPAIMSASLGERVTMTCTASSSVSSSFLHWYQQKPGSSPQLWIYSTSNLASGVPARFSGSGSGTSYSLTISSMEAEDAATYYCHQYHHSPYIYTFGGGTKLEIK", 0.468),
    ("KB001 mouse Fab FASEBA VH S57R (Fab, V domains shown) VH: EVQLKQSGPGLVAPSQSLSITCTVSGFSLSIYSVHWVRQPPGKGLEWLGMIWGGGSRDYNSALKSRLSISKDNSKSQVFLKMNSLQTDDTAMYYCARNGNFYAMDYWGQGTSVTVSS VL: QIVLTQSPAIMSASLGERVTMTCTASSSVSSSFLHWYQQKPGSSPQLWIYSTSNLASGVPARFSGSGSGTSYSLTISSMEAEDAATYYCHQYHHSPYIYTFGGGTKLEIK", 0.796),
    ("KB001 mouse Fab FASEBA VH S61C (Fab, V domains shown) VH: EVQLKQSGPGLVAPSQSLSITCTVSGFSLSIYSVHWVRQPPGKGLEWLGMIWGGGSSDYNCALKSRLSISKDNSKSQVFLKMNSLQTDDTAMYYCARNGNFYAMDYWGQGTSVTVSS VL: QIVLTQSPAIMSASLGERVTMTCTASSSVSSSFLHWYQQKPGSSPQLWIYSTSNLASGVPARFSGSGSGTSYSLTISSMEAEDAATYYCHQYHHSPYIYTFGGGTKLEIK", 0.431),
]

From: patent US20230365662A1
